System: Erysiphe graminis f. sp. tritici
Assay: Test A: wheat powdery mildew, preventive spray on wheat seedlings
Assay type: in vivo
Conditions: 200 ppm; wheat seedlings sprayed to run-off, inoculated next day, rated after 8 days; 100 = 100% disease control, 0 = no control
TEST_READOUT: Percentage Disease Control Test A (%)
Lab book: enter the figure in %, no units written.

Using the record for COC(=O)NCc1cc(-n2ccc(-c3ccc4c(c3)C(=O)CCO4)n2)ccc1F , report its Percentage Disease Control Test A. 90

Now try COC(=O)NCc1cc(-c2ccn(-c3ccc4c(c3)N(C)C(=O)CO4)n2)ccc1F . 90

Please give the result for COC(=O)NCc1cc(-n2ccc(-c3ccc4c(c3)C(F)CCO4)n2)ccc1F (stereo not drawn) too. 100

Would you mind doing COC(=O)NCc1cc(-n2ccc(-c3ccc4c(c3)N(C)CCO4)n2)ccc1F as well? 13

Same for COC(=O)NCc1cc(-c2ccn(-c3ccc4c(c3)CCCO4)n2)ccc1Br 100

Please answer likewise for COC(=O)NCc1cc(-n2ccc(-c3ccc4c(c3)OCCO4)n2)ccc1C 100

What do you get for COC(=O)NCc1cc(-n2ccc(-c3ccc4c(c3)NCCO4)n2)ccc1F ? 0

Next entry: COC(=O)NCc1cc(-c2ccn(-c3ccc4c(c3)OCCO4)n2)ccc1C 100

One more compound: COC(=O)NCc1cc(-n2ccc(-c3ccc4c(c3)NC(=O)CO4)n2)ccc1F 0

Could you do the same for COC(=O)NCc1cc(-c2ccn(-c3ccc4c(c3)C=C(C#N)CO4)n2)ccc1Cl , please? 0

Item: COC(=O)NCc1cc(-c2ccn(-c3ccc4c(c3)OCCO4)n2)ccc1Br 100

What do you get for COC(=O)NCc1cc(-n2ccc(-c3ccc4c(c3)OCCO4)n2)ccc1F ? 100

----------
What pest or weed control at 200 ppm was measured for each of the following?
Test system: Alternaria solani
Assay: Test G: tomato early blight, preventive spray on tomato seedlings
Format: in vivo
Conditions: Alternaria solani, topical, 168 h, tomato seedlings sprayed to run-off, inoculated next day, rated after 48 h + 5 days, read-out: Percentage Disease Control Test G
Answer format reminder: number followed by unit.

What does the record list as pest or weed control at 200 ppm for COC(=O)NCc1cc(-c2ccn(-c3ccc4c(c3)CCCO4)n2)ccc1F ? 88%

Would you kindly repeat that for COC(=O)NCc1cc(-c2ccn(-c3ccc4c(c3)CC3(CO4)OCCO3)n2)ccc1Cl ? 90%

Lookup CNC(=O)NCc1cc(-n2ccc(-c3ccc4c(c3)CCCO4)n2)ccc1Cl 9%

One more compound: CC(=O)NCc1cc(-n2ccc(-c3ccc4c(c3)CCCO4)n2)ccc1Cl 91%

Continue with COC(=O)NCc1cc(-c2ccn(-c3ccc4c(c3)C=C(C(=O)O)CO4)n2)ccc1Cl 0%

Request: O=CNCc1cc(-c2ccn(-c3ccc4c(c3)CCCO4)n2)ccc1Cl 0%

Same read-out for CNC(=O)NCc1cc(-c2ccn(-c3ccc4c(c3)CCCO4)n2)ccc1Cl ? 0%

Now this one: COC(=O)NCc1cc(-c2ccn(-c3ccc4c(c3)CCCO4)n2)ccc1C 90%

----------
System: Alternaria solani
Assay: Test G: tomato early blight, preventive spray on tomato seedlings
Type: in vivo
Conditions: Alternaria solani, topical, 168 h, tomato seedlings sprayed to run-off, inoculated next day, rated after 48 h + 5 days, read-out: Percentage Disease Control Test G
TEST_READOUT: pest or weed control at 200 ppm (%)
// return numeric value only (unit: %, not printed)

Consider the compound COC(=O)NCc1cc(-c2ccn(-c3ccc4c(c3)C=C(C(=O)OC)CO4)n2)ccc1Cl and give its measured pest or weed control at 200 ppm. 0

Field entry: COC(=O)NCc1cc(-n2ccc(-c3ccc4c(c3)CCCO4)n2)ccc1Cl 0

And the next one, COC(=O)NCc1cc(-c2ccn(-c3ccc4c(c3)CC(O)CO4)n2)ccc1Cl (stereo not shown) ? 94

Lookup COC(=O)NCc1cc(-n2ccc(-c3ccc4c(c3)OCO4)n2)ccc1Cl 95

And COC(=O)NCc1cc(-n2ccc(-c3ccc4c(c3)CCCO4)n2)ccc1C ? 0

Entry to check: COC(=O)NCc1cc(-n2ccc(-c3ccc4c(c3)CCCO4)n2)ccc1F 40

How about this compound: COC(=O)NCc1cc(-c2ccn(-c3ccc4c(c3)CCCO4)n2)ccc1Cl 100

Thanks! And CC(=O)NCc1cc(-c2ccn(-c3ccc4c(c3)CCCO4)n2)ccc1Cl ? 53

Could you do the same for COC(=O)NCc1cc(-c2ccn(-c3ccc4c(c3)CC(=O)CO4)n2)ccc1Cl , please? 17

Moving on to the next compound: COC(=O)NCc1cc(-n2ccc(-c3ccc4c(c3)OCCO4)n2)ccc1Cl 97

----------
Exercise: for every item that follows, state its recorded melting point.

Fill in: melting point of COC(=O)NCc1cc(-n2ccc(-c3ccc4c(c3)CCCO4)n2)ccc1F is ___ 140 to 144 °C

Likewise for COC(=O)NCc1cc(-c2ccn(-c3ccc4c(c3)C=C(C(=O)OC)CO4)n2)ccc1Cl ? 185 to 187 °C

What do you get for COC(=O)NCc1cc(-c2ccn(-c3ccc4c(c3)C=C(C(=O)O)CO4)n2)ccc1Cl ? 245 to 247 °C

And COC(=O)NCc1cc(-c2ccn(-c3ccc4c(c3)CC(O)CO4)n2)ccc1Cl (stereo not shown) ? 136 to 138 °C

----------
System: Septoria nodorum
Test: Test D: wheat glume blotch, preventive spray on wheat seedlings
Type: in vivo
Details: 200 ppm; wheat seedlings sprayed to run-off, inoculated next day, rated after 48 h + 7 days
TEST_READOUT: Percentage Disease Control Test D

Given the entry COC(=O)NCc1cc(-c2ccn(-c3ccc4c(c3)OCCO4)n2)ccc1Br , report its measured Percentage Disease Control Test D. 100%

Again, but for COC(=O)NCc1cc(-n2ccc(-c3ccc4c(c3)N(C)CCO4)n2)ccc1F 100%

Please do the same for COC(=O)NCc1cc(-n2ccc(-c3ccc4c(c3)NCCO4)n2)ccc1F as well. 100%

Query COC(=O)NCc1cc(-c2ccn(-c3ccc4c(c3)CCCO4)n2)ccc1Br next 100%

Do the same for COC(=O)NCc1cc(-n2ccc(-c3ccc4c(c3)OCCO4)n2)ccc1F please 100%

Try this compound next: COC(=O)NCc1cc(-c2ccn(-c3ccc4c(c3)N(C)C(=O)CO4)n2)ccc1F 97%

Ok, now COC(=O)NCc1cc(-n2ccc(-c3ccc4c(c3)NC(=O)CO4)n2)ccc1F 0%

Could you do the same for COC(=O)NCc1cc(-n2ccc(-c3ccc4c(c3)OCCO4)n2)ccc1C , please? 100%

----------
System: Septoria tritici
Assay: Test E: wheat leaf blotch, preventive spray on wheat seedlings
Format: in vivo
Conditions: 200 ppm; wheat seedlings sprayed to run-off, inoculated next day, rated after 48 h + 19 days
TEST_READOUT: Percentage Disease Control Test E (%)
State just the number; it will be interpreted in %.

I'd like to know its Percentage Disease Control Test E. The compound in question is COC(=O)NCc1cc(-n2ccc(-c3ccc4c(c3)NCCO4)n2)ccc1F 99

Please answer likewise for COC(=O)NCc1cc(-c2ccn(-c3ccc4c(c3)OCCO4)n2)ccc1C 100

Param item: COC(=O)NCc1cc(-c2ccn(-c3ccc4c(c3)CCCO4)n2)ccc1Br 100

Thanks! And COC(=O)NCc1cc(-n2ccc(-c3ccc4c(c3)C(=O)CCO4)n2)ccc1F ? 97

Now give it for COC(=O)NCc1cc(-n2ccc(-c3ccc4c(c3)NC(=O)CO4)n2)ccc1F too. 44

COC(=O)NCc1cc(-c2ccn(-c3ccc4c(c3)N(C)C(=O)CO4)n2)ccc1F , same question. 24

Please give the result for COC(=O)NCc1cc(-n2ccc(-c3ccc4c(c3)N(C)CCO4)n2)ccc1F too. 96

Repeat for the following compound: COC(=O)NCc1cc(-n2ccc(-c3ccc4c(c3)OCCO4)n2)ccc1C 99

Please give the result for COC(=O)NCc1cc(-n2ccc(-c3ccc4c(c3)C(F)CCO4)n2)ccc1F (stereo not drawn) too. 94

Now give it for COC(=O)NCc1cc(-c2ccn(-c3ccc4c(c3)C=C(C#N)CO4)n2)ccc1Cl too. 0

Note, next up: COC(=O)NCc1cc(-c2ccn(-c3ccc4c(c3)OCCO4)n2)ccc1Br 99

For COC(=O)NCc1cc(-n2ccc(-c3ccc4c(c3)OCCO4)n2)ccc1F then? 98

----------
Test system: Septoria nodorum
Assay: Test D: wheat glume blotch, preventive spray on wheat seedlings
Type: in vivo
Details: 200 ppm; wheat seedlings sprayed to run-off, inoculated next day, rated after 48 h + 7 days
For each entry below, report its Percentage Disease Control Test D value.
Give your result in % as a bare value.

So what's the measured Percentage Disease Control Test D for this one? COC(=O)NCc1cc(-n2ccc(-c3ccc4c(c3)C(F)CCO4)n2)ccc1F (stereo not shown) 100

Same for COC(=O)NCc1cc(-n2ccc(-c3ccc4c(c3)C(=O)CCO4)n2)ccc1F 99

How about COC(=O)NCc1cc(-c2ccn(-c3ccc4c(c3)OCCO4)n2)ccc1C ? 100

Field entry: COC(=O)NCc1cc(-c2ccn(-c3ccc4c(c3)C=C(C#N)CO4)n2)ccc1Cl 100
